Would you kindly list inhibition in vivo at 10 µmol/kg for each of these compounds?
- System: Rattus norvegicus
- ASSAY SUMMARY: Anti-inflammatory activity against carrageenan-induced albino rat paw edema model assessed as inhibition of PGE2 production in plasma at 10 umol/kg, sc treated 1 hr prior to carrageenan challenge measured after 2 hrs by microplate reader based enzyme immunoassay relative to control
- Assay type: functional
Answer format: number, then unit.

Query: May I ask what inhibition in vivo at 10 µmol/kg has been recorded for Cc1ccc(-c2cc(C(F)(F)F)nn2-c2ccc(S(N)(=O)=O)cc2)cc1 ?
Response: 69.6%

Query: And then N#Cc1cnn(-c2ccc(S(N)(=O)=O)cc2)c1NC(=O)CCl , what is it?
Response: 67.5%

Query: And then COc1ccc(/C=N/c2c(C#N)cnn2-c2ccc(S(N)(=O)=O)cc2)cc1 , what is it?
Response: 64.4%

Query: And then CC(=O)Nc1c(C#N)cnn1-c1ccc(S(=O)(=O)NC(C)=O)cc1 , what is it?
Response: 65.3%

Query: And then N#Cc1cnn(-c2ccc(S(N)(=O)=O)cc2)c1NC(=O)CCN1CCOCC1 , what is it?
Response: 76.2%

Query: And then N#Cc1cnn(-c2ccc(S(N)(=O)=O)cc2)c1/N=C/c1ccc(F)cc1 , what is it?
Response: 73.9%
